Data credit: ChEMBL document CHEMBL1130611

- Test system: Providencia
- protocol summary: Compound was tested in vitro for antibacterial activity against Providencia.
- Assay type: functional

>  <structure as smiles>
C[C@@H](O)[C@H]1C(=O)N2C(C(=O)[O-])=C(OCCOC(N)=O)S[C@H]12.[Na+]

>  <value qualifier>
=

>  <MIC [µg/mL]>
27.9

$$$$
>  <structure as smiles>
COC1=C(C(=O)[O-])N2C(=O)[C@H]([C@@H](C)O)[C@H]2S1.[Na+]

>  <value qualifier>
=

>  <MIC [µg/mL]>
39.4

$$$$
>  <structure as smiles>
C[C@@H](O)[C@H]1C(=O)N2C(C(=O)[O-])=C(OCCN)S[C@H]12.[Na+]

>  <value qualifier>
≥

>  <MIC [µg/mL]>
128

$$$$
>  <structure as smiles>
CCOC1=C(C(=O)[O-])N2C(=O)[C@H]([C@@H](C)O)[C@H]2S1.[Na+]

>  <value qualifier>
=

>  <MIC [µg/mL]>
39.4

$$$$
>  <structure as smiles>
CCCOC1=C(C(=O)[O-])N2C(=O)[C@H]([C@@H](C)O)[C@H]2S1.[Na+]

>  <value qualifier>
≥

>  <MIC [µg/mL]>
64

$$$$
>  <structure as smiles>
CCCCOC1=C(C(=O)[O-])N2C(=O)[C@H]([C@@H](C)O)[C@H]2S1.[Na+]

>  <value qualifier>
≥

>  <MIC [µg/mL]>
80.6

$$$$
